The measurements presented in this section are drawn from patent US20140120095A1.

- system_tested: T1, cynomolgus DLL4 expressed on CHO cells (cynomolgus, UniProt Q9NR61 27-685 (human entry))
- T1 construct: also called cDLL4; CHO-cDLL4
- T1 chain: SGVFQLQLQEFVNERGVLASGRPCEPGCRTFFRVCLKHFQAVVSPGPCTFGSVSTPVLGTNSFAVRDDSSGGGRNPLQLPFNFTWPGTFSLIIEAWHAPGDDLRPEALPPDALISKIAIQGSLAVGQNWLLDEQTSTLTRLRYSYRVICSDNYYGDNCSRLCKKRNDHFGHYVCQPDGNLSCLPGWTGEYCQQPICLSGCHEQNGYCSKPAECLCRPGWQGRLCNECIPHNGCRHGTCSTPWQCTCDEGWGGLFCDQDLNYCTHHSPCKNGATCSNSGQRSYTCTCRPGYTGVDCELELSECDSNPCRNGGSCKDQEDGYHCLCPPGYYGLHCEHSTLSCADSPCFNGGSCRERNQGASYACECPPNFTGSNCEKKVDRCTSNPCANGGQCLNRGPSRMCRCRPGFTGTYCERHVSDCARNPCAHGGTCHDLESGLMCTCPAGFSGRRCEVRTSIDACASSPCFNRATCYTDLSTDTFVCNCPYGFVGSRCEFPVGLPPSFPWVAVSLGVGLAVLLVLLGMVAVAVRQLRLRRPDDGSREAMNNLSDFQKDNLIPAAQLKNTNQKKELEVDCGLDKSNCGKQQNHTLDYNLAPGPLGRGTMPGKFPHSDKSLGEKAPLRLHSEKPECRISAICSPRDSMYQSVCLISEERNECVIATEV
- test_summary: FACS; summary table, column taken as cDLL4
reported_metric: EC50 (nM)
Give bare numbers, in nM.

Worked examples, 4 binders total:
DLLBII133G05 (VHH, not shown: small tags and cut ends) VHH: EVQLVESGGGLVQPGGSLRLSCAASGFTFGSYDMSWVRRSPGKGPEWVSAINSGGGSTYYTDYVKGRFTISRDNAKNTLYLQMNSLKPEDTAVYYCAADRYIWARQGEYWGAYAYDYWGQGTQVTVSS
2.7
DLLBII129E11 (VHH, not shown: small tags and cut ends) VHH: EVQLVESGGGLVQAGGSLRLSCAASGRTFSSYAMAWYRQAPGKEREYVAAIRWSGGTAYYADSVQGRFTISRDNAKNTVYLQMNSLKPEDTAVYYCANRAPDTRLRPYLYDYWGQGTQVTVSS
4.2
DLLBII115A05 (VHH, not shown: small tags and cut ends, parent VHH; also called 115A05 (wt); 115A5) VHH: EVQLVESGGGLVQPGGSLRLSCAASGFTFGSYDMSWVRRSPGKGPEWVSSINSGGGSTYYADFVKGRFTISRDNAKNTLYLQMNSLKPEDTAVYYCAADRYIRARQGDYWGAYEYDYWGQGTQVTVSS
13.8
DLLBII136C07 (VHH, not shown: small tags and cut ends) VHH: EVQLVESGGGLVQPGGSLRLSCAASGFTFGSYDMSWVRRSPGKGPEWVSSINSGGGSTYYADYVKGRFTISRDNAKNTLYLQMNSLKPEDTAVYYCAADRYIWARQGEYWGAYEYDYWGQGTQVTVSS
3.5

INPUT: Recorded EC50 for DLLBII129B05 (VHH, not shown: small tags and cut ends) VHH: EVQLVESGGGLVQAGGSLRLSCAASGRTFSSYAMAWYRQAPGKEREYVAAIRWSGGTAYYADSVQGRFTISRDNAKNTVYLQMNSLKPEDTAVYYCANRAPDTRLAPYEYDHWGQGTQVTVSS , please?
OUTPUT: 3.9
